Target: trkA in NIH3T3 cells transfected with trkA (Homo sapiens, UniProt P04629)
Construct: expressed in transfected cells; host or cells: NIH3T3 cells
Sequence (P04629 33-796): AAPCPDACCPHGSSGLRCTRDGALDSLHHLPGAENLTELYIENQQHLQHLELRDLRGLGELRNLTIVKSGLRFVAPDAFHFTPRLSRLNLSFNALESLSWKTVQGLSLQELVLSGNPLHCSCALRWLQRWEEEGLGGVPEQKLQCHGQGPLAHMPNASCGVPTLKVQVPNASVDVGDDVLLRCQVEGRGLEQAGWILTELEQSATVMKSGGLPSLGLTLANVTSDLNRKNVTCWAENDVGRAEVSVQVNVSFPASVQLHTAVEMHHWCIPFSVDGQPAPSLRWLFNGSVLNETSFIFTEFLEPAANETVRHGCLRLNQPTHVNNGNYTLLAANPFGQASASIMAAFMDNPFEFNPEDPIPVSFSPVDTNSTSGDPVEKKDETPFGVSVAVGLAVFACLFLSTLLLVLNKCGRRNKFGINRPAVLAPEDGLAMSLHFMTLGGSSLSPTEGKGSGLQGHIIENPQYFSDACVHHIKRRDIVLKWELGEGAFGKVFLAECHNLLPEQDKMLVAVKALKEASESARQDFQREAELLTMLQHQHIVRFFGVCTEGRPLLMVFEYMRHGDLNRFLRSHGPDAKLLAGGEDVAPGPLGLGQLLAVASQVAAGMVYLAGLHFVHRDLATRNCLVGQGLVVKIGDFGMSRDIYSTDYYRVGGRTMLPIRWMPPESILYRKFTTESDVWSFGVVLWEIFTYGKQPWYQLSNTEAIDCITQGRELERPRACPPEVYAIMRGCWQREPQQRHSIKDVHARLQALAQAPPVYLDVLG
Experiment: Inhibition of NGF-stimulated trk phosphorylation in a whole cell preparation
Format: cell-based
Parameters: key: 0=no decrease; 1=1-25%; 2=26-49%; 3=50-75%; 4=76-100%
Details: 100 nM compound, NGF 10 ng/ml, percent decrease in trk protein band
Entries and their measured Inhibition Score at 100 nM follow.

- compound: "CC12CCCC(O1)n1c3ccccc3c3c4c(c5c(c31)C2c1ccccc1-5)C(=O)NC4 (single isomer, unassigned) [II-4b]"
  Inhibition Score at 100 nM: 0
- compound: "CC12CCC(O1)n1c3ccccc3c3c4c(c5c(c31)C2c1ccccc1-5)C(=O)NC4 (centres unmarked) [II-3]"
  Inhibition Score at 100 nM: "1 (1=1-25%)"
- compound: "O=C1NCc2c1c1c3c4c2c2ccccc2n4C2CCC(O2)C3c2ccccc2-1 (centres unmarked) [II-1]"
  Inhibition Score at 100 nM: "3 (3=50-75%)"
- compound: "CC12COCC(O1)n1c3ccccc3c3c4c(c5c(c31)C2c1ccccc1-5)C(=O)NC4 (single isomer, unassigned) [II-7a]"
  Inhibition Score at 100 nM: "3 (3=50-75%)"

Attention now shifts to the item below.
Memo: CC12COCC(O1)n1c3ccccc3c3c4c(c5c(c31)C2c1ccccc1-5)C(=O)NC4 (centres unmarked) [II-7b] , reported Inhibition Score at 100 nM: 3 (3=50-75%)

###

Target: PDGFβ receptor kinase domain (Homo sapiens)
Sequence (P09619 600-962 limits assumed): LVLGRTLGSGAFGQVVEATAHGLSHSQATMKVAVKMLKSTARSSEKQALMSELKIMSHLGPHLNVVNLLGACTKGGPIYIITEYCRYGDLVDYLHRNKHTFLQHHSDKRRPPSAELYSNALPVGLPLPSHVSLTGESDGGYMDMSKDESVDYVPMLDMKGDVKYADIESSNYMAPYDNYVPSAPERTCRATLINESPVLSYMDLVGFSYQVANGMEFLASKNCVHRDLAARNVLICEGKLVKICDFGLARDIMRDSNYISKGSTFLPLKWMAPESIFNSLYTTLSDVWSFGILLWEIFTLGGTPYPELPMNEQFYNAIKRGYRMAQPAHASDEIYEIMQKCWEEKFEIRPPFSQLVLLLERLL
measured-parameter: pIC50
Keep in mind that pIC50 stands for -log10 of concentration in molar terms.

- molecule: "O=C1NCc2c1c1c3c4c2c2ccccc2n4C2CCC(CO)(O2)C3c2ccccc2-1 (stereo not drawn)"
  observed-result: 6.90

Per the reported PDGFβ receptor kinase domain (Homo sapiens) data, O=C1NCc2c1c1c3c4c2c2ccccc2n4C2CCC(O2)C3c2ccccc2-1 (stereo not drawn) has pIC50 of 5.86

Per the reported PDGFβ receptor kinase domain (Homo sapiens) data, COc1ccc2c(c1)-c1c3c(c4c5ccccc5n5c4c1C2C1CCC5O1)CNC3=O (stereo not drawn) has pIC50 of 5.91

###

Biological target: PDGFβ receptor kinase domain (Homo sapiens)
Construct: baculovirus-expresses PDGFβ receptor kinase domain; made in house; host or cells: baculovirus expression system
Test: Inhibition of PDGF receptor kinase activity (ELISA)
Format: biochemical
Details: 1 μM; values in parentheses; read-out: PDGFR % Inh. @ 1 μM
Method: Bridged indenopyrrolocarbazole compounds were examined for their inhibitory effects on the kinase activity of baculovirus-expresses PDGFβ receptor kinase domain using the trkA kinase ELISA described above. […] The reaction was quenched with acid and the resulting absorbance was read at 450 nm using a Microplate Bio-kinetics Reader (Bio-Tek Instrument EL 312e). Inhibition data were analyzed using the sigmoidal dose-response (variable slope) equation in GraphPad Prism.
Entries and their measured inhibition at 1 µM follow.
Your answer should be a plain number; it is taken to be in %.

- compound: "O=C1NCc2c3c4c5c(c21)c1ccccc1n5C1CCC(O1)C4c1ccccc1-3 (stereo not shown)"
  measurement-target: "PDGFβ receptor kinase domain (Homo sapiens)"
  inhibition at 1 µM (%): 15
- compound: "Nc1cccc(-c2ccc3c(c2)c2c4c(c5c6c2n3C2CCC(O2)C6c2ccccc2-5)C(=O)NC4)c1 (stereo not shown)"
  measurement-target: "PDGFβ receptor kinase domain (Homo sapiens)"
  inhibition at 1 µM (%): 24
- compound: "CC12COCC(O1)n1c3ccccc3c3c4c(c5c(c31)C2c1ccccc1-5)C(=O)NC4 (stereo not shown)"
  measurement-target: "PDGFβ receptor kinase domain (Homo sapiens)"
  inhibition at 1 µM (%): 34

Attention now shifts to the item below.
Memo: CCC12c3ccccc3-c3c4c(c5c6ccccc6n(c5c31)C1CCC2O1)CNC4=O (stereo not shown) , reported inhibition at 1 µM: 7
